B1: Azoarcus group I ribozyme (parent)
chain: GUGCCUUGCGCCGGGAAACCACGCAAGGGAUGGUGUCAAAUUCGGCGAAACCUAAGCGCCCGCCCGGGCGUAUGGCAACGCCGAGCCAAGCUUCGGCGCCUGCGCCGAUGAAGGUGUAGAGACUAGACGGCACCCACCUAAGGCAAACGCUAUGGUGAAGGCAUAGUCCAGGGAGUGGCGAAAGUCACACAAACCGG

Variants of: B1
method_description: reverse-splicing fitness (ratio to wild type); higher = more active; in vitro selection; Mg2+ level not given
# if value of reverse-splicing fitness reaches 0.01, tag 1; if it stays below, tag -1

>>> group("A111G A145C C150A C169U U176C")
1
>>> group("C82A A111C A145U C169G U176A")
1
>>> group("A111C A145U C150A U176C")
1
>>> group("A111C A145C C150A C169A")
-1
>>> group("C82G A111G A120U C150A C169G U176C")
-1
>>> group("A111C A120U A145U C150U U176A")
1
>>> group("C82U A111G A145C")
1
>>> group("A111C A120U A145C C150G C169G U176C")
-1
>>> group("C82A A111G A145U C150A U176A")
1
